System: NMDA receptor
Construct: IC50
Assay: Intracellular calcium concentration determination by FLIPR in rat first-generation neurocytes (NMDA/glycine stimulation)
Type: cell-based
Conditions: rat first-generation neurocytes (DIV7-9), NMDA/glycine-induced calcium rise, 10 μM MK-801 = 100% inhibition
Experimental: 1) Preparation of Rat First-Generation Neurocytes Anesthetized with ether, Wistar rats (Nippon SLC) at the 19th day of pregnancy were let die from blood loss by breast incision. […] The number of the living cells was counted, and 100,000 cells/well were incubated on a 96-well plate (Biocoat PDL96W black/clear (Nippon Becton Dickinson)) (37° C., 5% CO2). 2) Intracellular Calcium Concentration Determination by FLIPR (Fluorometric Imaging Plate Reader) […]
MEASUREMENT_NAME: pIC50
Scale: pIC50 equals -log10([C]), with [C] in mol/L.

Request body: readout pIC50, system NMDA receptor, query `c1ccc([C@]23CCCN[C@H]2c2ccccc2C3)cc1` . Return the value. 5.17
